tested on: CCRIS mutagenicity, Ames/micronucleus/aberration tests; experiment: CCRIS mutagenicity studies; conditions: End Point: IN VITRO CHROMOSOMAL ABERRATIONS; Test System: HUMAN PERIPHERAL LYMPHOCYTES; Metabolic Activation: NONE
Activity calls are given as the source filed them. No rule for the calls is given here.
Would you mind answering with one of these outcomes? yes (1) for active, no (0) for inactive

Solved cases below.
[CH3][Hg][CH3] = yes (1)
O=c1c(-c2ccc(O)cc2)coc2cc(O)cc(O)c12 = yes (1)
O=[N+]([O-])c1ccc(Br)cc1 = no (0)

I'd appreciate the recorded outcome for C#C[C@]1(O)CC[C@H]2[C@@H]3CCC4=C(CCC(=O)C4)[C@H]3CC[C@@]21C from this test.
no (0)

* * *

test system: CCRIS mutagenicity, Ames/micronucleus/aberration tests; test: CCRIS mutagenicity studies; settings: Test System: E.COLI; Strain/Indicator: WP2 UVRA; Metabolic Activation: NONE; Method: PREINCUBATION
Active and inactive are the calls of the source. The rule behind the calls is not given here.
Would you mind answering with one of these outcomes? class 1 for active, class 0 for inactive

I'd appreciate the recorded outcome for Cc1ccccc1C(=O)Cl from this test.
class 1

Repeat for the following compound: CN(c1nccc(=O)[nH]1)C1CCN(c2nc3ccccc3n2Cc2ccc(F)cc2)CC1
class 0

Repeat for the following compound: O=C(Cl)c1ccccc1C(=O)Cl
class 1

Repeat for the following compound: O=C(O)Cc1ccc(Cl)cc1
class 0

Repeat for the following compound: CC(=O)N[C@@H]1[C@@H](O[C@@H]2O[C@H](C(=O)O)[C@@H](O[C@@H]3O[C@H](CO)[C@@H](O)[C@H](O[C@@H]4O[C@H](C(=O)O)[C@@H](O)[C@H](O)[C@H]4O)[C@H]3NC(C)=O)[C@H](O)[C@H]2O)[C@H](O)[C@@H](CO)O[C@H]1O
class 0

* * *

test system: CCRIS mutagenicity, Ames/micronucleus/aberration tests; test: CCRIS mutagenicity studies; conditions: Test System: AMES SALMONELLA TYPHIMURIUM; Strain/Indicator: TA98; Metabolic Activation: HAMSTER, LIVER, S-9, AROCLOR 1254 (10%); Method: PREINCUBATION
Activity calls are given as the source filed them. No rule for the calls is given here.
Would you mind answering with one of these outcomes? YES = active, NO = inactive

Solved cases below.
CCOCCO = NO
Cc1ccc(C)o1 = NO
Cc1ccc(C(C)(C)C)cc1 = NO

I'd appreciate the recorded outcome for CCCCCCOC(=O)c1ccccc1C(=O)OCCCCCC from this test.
NO

Repeat for the following molecule: NC1CCC(CC2CCC(N)CC2)CC1 (configuration not stated)
NO

Repeat for the following molecule: C=CCOC(=O)c1ccccc1N
NO

Repeat for the following molecule: CC(C)N
NO

Repeat for the following molecule: Nc1cc([N+](=O)[O-])cc(Cl)c1O
YES

Repeat for the following molecule: O=Cc1ccc(Cl)c(Cl)c1
NO

Repeat for the following molecule: CN(C)c1ccc(N=NS(=O)(=O)O)cc1
YES

Repeat for the following molecule: CN(C)C
NO

Repeat for the following molecule: S=C1NCCN1
NO

* * *

system: CCRIS mutagenicity, Ames/micronucleus/aberration tests; assay: CCRIS mutagenicity studies; conditions: Test System: AMES SALMONELLA TYPHIMURIUM; Strain/Indicator: TA100; Metabolic Activation: RAT, LIVER, S-9, AROCLOR 1254 (10%); Method: PREINCUBATION
The source made the active and inactive calls. No rule for the calls is given here.
Would you mind answering with one of these outcomes? active, inactive

Solved cases below.
CC(C)CC(C)Nc1ccc(Nc2ccccc2)cc1 (stereo unspecified) = inactive
NCCNCCNCCNCCN = active
c1ccc(Nc2ccccc2)cc1 = inactive
O=[N+]([O-])c1cccc2cc3ccccc3cc12 = active
OCC(Cl)CCl (stereo unspecified) = active
Cc1cc(O)ccc1Cl = inactive
c1ccc(Nc2ccc3ccccc3c2)cc1 = inactive
CC(C)N = inactive
S=C1NCCN1 = inactive
C=CC1CO1 (stereo unspecified) = active

# ---- query molecule ----
I'd appreciate the recorded outcome for Nc1cc([N+](=O)[O-])cc(Cl)c1O from this test.
active
